# targetEntity: T1, CD38 (human, UniProt P28907 43-300, limits assumed)
# T1 construct: also called cluster of differentiation 38; cyclic ADP ribose hydrolase
# assayExplanation: ELISA; larger values represent binding
Where no end group is shown, it is not given here. [ ]: non-standard residue; d: D form. Bip = N[C@@H](Cc1ccc(-c2ccccc2)cc1)C(=O)O; NMeF = CN[C@@H](Cc1ccccc1)C(=O)O
measurementType: Binding Assay (ELISA signal)

>  <binder>
ALH[NMeF]VLA[Bip]VWVC (not fully specified (N-terminus, bridges); printed as A L H MeF V L A Bph V W V C, Alanine variant at position 7) [A L H MeF V L A Bph V W V C]

>  <result>
0.11

$$$$
>  <binder>
ALH[NMeF]VLP[Bip]AWVC (not fully specified (N-terminus, bridges); printed as A L H MeF V L P Bph A W V C, Alanine variant at position 9) [A L H MeF V L P Bph A W V C]

>  <result>
0.12

$$$$
>  <binder>
AAH[NMeF]VLP[Bip]VWVC (not fully specified (N-terminus, bridges); printed as A A H MeF V L P Bph V W V C) [A A H MeF V L P Bph V W V C]

>  <result>
0.84

$$$$
